System: AMO-1 human multiple myeloma tumor cell line
assay text: AMO-1 cell viability assay (CellTiter-Glo, 24 hours)
Type: cell-based
assay context: Homo sapiens, AMO1, 24 h, read-out: AMO-1 Viability IC50 (μM, 10% FBS), 10% FBS, 24 hours of compound treatment
experimental endpoint: IC50 (nM)

- COC1CC2(C1)CN(c1nccc(COc3ccc4cc3C[C@H](C(=O)O)Oc3ncnc5sc(-c6ccc(F)cc6)c(c35)-c3c(C)c(Cl)c(c(Cl)c3C)O[C@H](CN3CCN(C)CC3)CO4)n1)C2: 0.418
- COCCOCCOCCOc1cccc(-c2nccc(COc3ccc4cc3C[C@H](C(=O)O)Oc3ncnc5sc(-c6ccc(F)cc6)c(c35)-c3c(C)c(Cl)c(c(Cl)c3C)O[C@H](CN3CCN(C)CC3)CO4)n2)c1: 0.0488
- Cc1c(Cl)c2c(Cl)c(C)c1-c1c(-c3ccc(F)cc3)sc3ncnc(c13)O[C@@H](C(=O)O)Cc1cc(ccc1OCc1ccnc(-c3ccc(OCC4COCCOCCOCCOCCOCCO4)cc3)n1)OC[C@@H](CN1CCN(C)CC1)O2 (some centres unmarked): 1.28
- COC[C@H](COc1ccc(-c2nccc(COc3ccc4cc3C[C@H](C(=O)O)Oc3ncnc5sc(-c6ccc(F)cc6)c(c35)-c3c(C)c(Cl)c(c(Cl)c3C)O[C@H](CN3CCN(C)CC3)CO4)n2)cc1)OC: 0.394
- Cc1c(Cl)c2c(Cl)c(C)c1-c1c(-c3ccc(F)cc3)sc3ncnc(c13)O[C@@H](C(=O)O)Cc1cc(ccc1OCc1ccnc(-c3ccc(CN4CCS(=O)(=O)CC4)cc3)n1)OC[C@@H](CN1CCN(C)CC1)O2: 0.544
- COCCOCCOCC1(F)CC=C(c2nccc(COc3ccc4cc3C[C@H](C(=O)O)Oc3ncnc5sc(-c6ccc(F)cc6)c(c35)-c3c(C)c(Cl)c(c(Cl)c3C)O[C@H](CN3CCN(C)CC3)CO4)n2)CC1 (single isomer, unassigned): 0.105
- Cc1c2ccc(c1Cl)O[C@H](CN1CCN(C)CC1)COc1ccc(OCc3ccnc(-c4ccc(OC[C@H](O)CO)cc4)n3)c(c1)C[C@H](C(=O)O)Oc1ncnc3sc(-c4ccc(F)cc4)c-2c13 (atropisomer, axis not shown): 2.95
- Cc1c(Cl)c2c(Cl)c(C)c1-c1c(-c3ccc(F)cc3)sc3ncnc(c13)O[C@@H](C(=O)O)Cc1cc(ccc1OCc1ccnc(N3CC4(COC4)C3)n1)OC[C@@H](CN1CCN(C)CC1)O2: 1.1
- Cc1c(Cl)c2c(Cl)c(C)c1-c1c(-c3ccc(F)cc3)sc3ncnc(c13)O[C@@H](C(=O)O)Cc1cc(ccc1OCc1ccnc(N3CC(C(CO)CO)C3)n1)OC[C@@H](CN1CCN(C)CC1)O2: 20.9
- Cc1c(Cl)c2c(Cl)c(C)c1-c1c(-c3ccc(F)cc3)sc3ncnc(c13)O[C@@H](C(=O)O)Cc1cc(ccc1OCc1ccnc(-c3ccc(S(C)(=N)=O)cc3)n1)OC[C@@H](CN1CCN(C)CC1)O2 (some centres unmarked): 2.77
- COCCOCCOCCOCc1ccc(-c2nccc(COc3ccc4cc3C[C@H](C(=O)O)Oc3ncnc5sc(-c6ccc(F)cc6)c(c35)-c3c(C)c(Cl)c(c(Cl)c3C)O[C@H](CN3CCN(C)CC3)CO4)n2)cc1COCCOCCOCCOC: 7.32
- COCCOCCOCCOCCOC[C@H]1CCCC[C@@H]1c1nccc(COc2ccc3cc2C[C@H](C(=O)O)Oc2ncnc4sc(-c5ccc(F)cc5)c(c24)-c2c(C)c(Cl)c(c(Cl)c2C)O[C@H](CN2CCN(C)CC2)CO3)n1 (relative stereo): 0.355
- CO[C@@H]1CO[C@H]2[C@@H]1OC[C@H]2OCCOc1nccc(COc2ccc3cc2C[C@H](C(=O)O)Oc2ncnc4sc(-c5ccc(F)cc5)c(c24)-c2c(C)c(Cl)c(c(Cl)c2C)O[C@H](CN2CCN(C)CC2)CO3)n1: 3.04
- COCCOCCOc1ccc(-c2ccccc2OC)nc1COc1ccc2cc1C[C@H](C(=O)O)Oc1ncnc3sc(-c4ccc(F)cc4)c(c13)-c1c(C)c(Cl)c(c(Cl)c1C)O[C@H](CN1CCN(C)CC1)CO2: 152
- COCCOCCOCCOCCOCCOCC1(c2nccc(COc3ccc4cc3C[C@H](C(=O)O)Oc3ncnc5sc(-c6ccc(F)cc6)c(c35)-c3c(C)c(Cl)c(c(Cl)c3C)O[C@H](CN3CCN(C)CC3)CO4)n2)CCC1: 0.686
- Cc1c(Cl)c2c(Cl)c(C)c1-c1c(-c3ccc(F)cc3)sc3ncnc(c13)O[C@@H](C(=O)O)Cc1cc(ccc1OCc1ccnc(-c3ccccc3S(C)(=N)=O)n1)OCC(CN1CCN(C)CC1)O2 (some centres unmarked): 1.12
- CO[C@@H]1CO[C@H]2[C@@H]1OC[C@H]2OCCOCCOC1CCC(c2nccc(COc3ccc4cc3C[C@H](C(=O)O)Oc3ncnc5sc(-c6ccc(F)cc6)c(c35)-c3c(C)c(Cl)c(c(Cl)c3C)O[C@H](CN3CCN(C)CC3)CO4)n2)CC1 (some centres unmarked): 2

---

target: GST-MCL-1 (Homo sapiens, UniProt Q07820)
Sequence (Q07820 whole entry): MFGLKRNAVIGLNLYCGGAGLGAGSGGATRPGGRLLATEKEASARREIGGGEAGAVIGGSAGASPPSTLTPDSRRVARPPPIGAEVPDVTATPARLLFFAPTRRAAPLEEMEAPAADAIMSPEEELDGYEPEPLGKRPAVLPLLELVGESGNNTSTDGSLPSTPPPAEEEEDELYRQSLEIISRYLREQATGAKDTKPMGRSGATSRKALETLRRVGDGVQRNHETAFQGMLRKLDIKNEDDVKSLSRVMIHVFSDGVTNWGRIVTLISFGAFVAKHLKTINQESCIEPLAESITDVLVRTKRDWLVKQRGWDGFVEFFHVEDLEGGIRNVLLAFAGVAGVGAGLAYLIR
assay text: TR-FRET MCL-1 binding assay (competition with probe F-Bak)
assay context: MCL-1 Binding Ki (nM, 10% HS), in the presence of 10% HS (human serum)
Measured Ki of individual entries
experimental endpoint: Ki (nM)

• Cc1c(Cl)c2c(Cl)c(C)c1-c1c(-c3ccc(F)cc3)sc3ncnc(c13)O[C@@H](C(=O)O)Cc1cc(ccc1OCc1ccnc(-c3ccc(OCCN4CCP(C)(=O)CC4)cc3)n1)OC[C@@H](CN1CCN(C)CC1)O2 = 0.106
• COCCOCCOCCOc1ccccc1-c1nccc(COc2ccc3cc2C[C@H](C(=O)O)Oc2ncnc4sc(-c5ccc(F)cc5)c(c24)-c2c(C)c(Cl)c(c(Cl)c2C)O[C@H](CN2CCN(C)CC2)CO3)n1 = 0.152
• COCCOCCOc1cc(COc2ccc3cc2C[C@H](C(=O)O)Oc2ncnc4sc(-c5ccc(F)cc5)c(c24)-c2c(C)c(Cl)c(c(Cl)c2C)O[C@H](CN2CCN(C)CC2)CO3)nc(-c2ccccc2OC)n1 = 0.631
• COC[C@H](COc1ccc(-c2nccc(COc3ccc4cc3C[C@H](C(=O)O)Oc3ncnc5sc(-c6ccc(F)cc6)c(c35)-c3c(C)c(Cl)c(c(Cl)c3C)O[C@H](CN3CCN(C)CC3)CO4)n2)cc1)OC = 0.999
• Cc1c(Cl)c2c(Cl)c(C)c1-c1c(-c3ccc(F)cc3)sc3ncnc(c13)O[C@@H](C(=O)O)Cc1cc(ccc1OCc1ccnc(C3(COCCOC[C@H]4COCCO4)CCC3)n1)OC[C@@H](CN1CCN(C)CC1)O2 = 0.325
• COCCOCCOCCOc1cccc(COc2ccc3cc2C[C@H](C(=O)O)Oc2ncnc4sc(-c5ccc(F)cc5)c(c24)-c2c(C)c(Cl)c(c(Cl)c2C)O[C@H](CN2CCN(C)CC2)CO3)c1 = 23.6
• Cc1c(Cl)c2c(Cl)c(C)c1-c1c(-c3ccc(F)cc3)sc3ncnc(c13)O[C@@H](C(=O)O)Cc1cc(ccc1OCc1ccnc(-c3ccc(CCN4CC5COCC5C4)cc3)n1)OC[C@@H](CN1CCN(C)CC1)O2 (stereo partly drawn) = 0.058
• COCCOCCOCCOCCOCCO[C@H]1CC[C@@H](c2nccc(COc3ccc4cc3C[C@H](C(=O)O)Oc3ncnc5sc(-c6ccc(F)cc6)c(c35)-c3c(C)c(Cl)c(c(Cl)c3C)O[C@H](CN3CCN(C)CC3)CO4)n2)CC1 = 0.135
• Cc1c(Cl)c2c(Cl)c(C)c1-c1c(-c3ccc(F)cc3)sc3ncnc(c13)O[C@@H](C(=O)O)Cc1cc(ccc1OCc1ccnc(-c3cccc(CN4CCS(=O)(=O)CC4)c3)n1)OC[C@@H](CN1CCN(C)CC1)O2 = 0.219

---

Ki values for the compounds below.
target: GST-MCL-1 (Homo sapiens, UniProt Q07820)
assay text: TR-FRET MCL-1 binding assay (competition with probe F-Bak)
assay context: MCL-1 Binding Ki (nM, 10% HS), in the presence of 10% HS (human serum)
experimental endpoint: Ki (nM)

* COC[C@@H](COc1ccc(-c2nccc(COc3ccc4cc3C[C@H](C(=O)O)Oc3ncnc5sc(-c6ccc(F)cc6)c(c35)-c3c(C)c(Cl)c(c(Cl)c3C)O[C@H](CN3CCN(C)CC3)CO4)n2)cc1)OC [Example 136] | 0.758
* Cc1c(Cl)c2c(Cl)c(C)c1-c1c(-c3ccc(F)cc3)sc3ncnc(c13)O[C@@H](C(=O)O)Cc1cc(ccc1OCc1ccnc(-c3ccc(OC[C@H](O)CO)cc3)n1)OC[C@@H](CN1CCN(C)CC1)O2 [Example 22] | 0.214
* Cc1c(Cl)c2c(Cl)c(C)c1-c1c(-c3ccc(F)cc3)sc3ncnc(c13)O[C@@H](C(=O)O)Cc1cc(ccc1OCc1ccnc(-c3ccc(OC(=O)N4CCOCC4)cc3)n1)OC[C@@H](CN1CCN(C)CC1)O2 [Example 151] | 0.325
* COCCOCCOCCOCCOCCOCCOCC1(c2nccc(COc3ccc4cc3C[C@H](C(=O)O)Oc3ncnc5sc(-c6ccc(F)cc6)c(c35)-c3c(C)c(Cl)c(c(Cl)c3C)O[C@H](CN3CCN(C)CC3)CO4)n2)CCC1 [Example 60] | 0.125
